These measurements were taken from patent US4740233A.

- System: nitrification of ammonium nitrogen
- experiment_summary: Suppression of nitrification of ammonium nitrogen in soil
- particulars: 10 ppm, 27° C.
- Procedure: A sufficient volume of water was added to 20 g of the soil in a wide-mouth, screw-cap, 4-ounce, glass bottle, such that the moisture content of the mixture was made equal to the 1/3 bar tension value for that soil. The mixture was thoroughly mixed before sealing. […] The soil samples were analyzed as follows: Sufficient ammonium sulfate extracting solution was added to the sample, such that the total volume of added water was 50 ml (included water added during sample preparation). […]
Labelling field: enter met if recorded % NH4-N Remaining After 2 Weeks Incubation is less than 70%. Enter not met if it equals or exceeds that cut-off.

Example entries begin here.
                                 cpd_smiles                  measurement_target  qualitative_label
0  Cc1cc(C)n2nc(S(=O)(=O)Nc3c(F)cccc3C(=O)O)nc2n1  nitrification of ammonium nitrogen                met
1  Cc1nc2nc(S(=O)(=O)Nc3ccccc3C(F)(F)F)nn2c2c1CCC2  nitrification of ammonium nitrogen            not met
2  Cc1cc(C)n2nc(S(=O)(=O)Nc3ccccc3C(=O)OC(C)C)nc2n1  nitrification of ammonium nitrogen                met
3   O=S(=O)(Nc1ccccc1C(F)(F)F)c1nc2ncccn2n1  nitrification of ammonium nitrogen            not met
4   Cc1cc(C)n2nc(S(=O)(=O)Nc3ncccc3Cl)nc2n1  nitrification of ammonium nitrogen            not met

Is % NH4-N Remaining After 2 Weeks Incubation of COC(=O)c1sccc1NS(=O)(=O)c1nc2nc(C)cc(C)n2n1 strictly below 70%?
met

Further, for CNc1ccccc1NS(=O)(=O)c1nc2nc(C)cc(C)n2n1 ?
met

Quick one: COC(=O)c1ccc(C(=O)OC)c(NS(=O)(=O)c2nc3nc(C)cc(C)n3n2)c1
met

// next record CSc1ccccc1NS(=O)(=O)c1nc2nc(C)ccn2n1
not met

Field entry: CSc1ccccc1NS(=O)(=O)c1nc2ncccn2n1
not met

And Cc1cc(C)n2nc(S(=O)(=O)Nc3cc(C(F)(F)F)ccc3Cl)nc2n1 ?
not met

And then CCc1cccc(CC)c1NS(=O)(=O)c1nc2nc(C)cc(C)n2n1 , what is it?
not met
